cGMP-inhibited 3',5'-cyclic phosphodiesterase 3A (Homo sapiens, UniProt Q14432) pIC50, compiled from various sources.
Sequence (Q14432 whole entry): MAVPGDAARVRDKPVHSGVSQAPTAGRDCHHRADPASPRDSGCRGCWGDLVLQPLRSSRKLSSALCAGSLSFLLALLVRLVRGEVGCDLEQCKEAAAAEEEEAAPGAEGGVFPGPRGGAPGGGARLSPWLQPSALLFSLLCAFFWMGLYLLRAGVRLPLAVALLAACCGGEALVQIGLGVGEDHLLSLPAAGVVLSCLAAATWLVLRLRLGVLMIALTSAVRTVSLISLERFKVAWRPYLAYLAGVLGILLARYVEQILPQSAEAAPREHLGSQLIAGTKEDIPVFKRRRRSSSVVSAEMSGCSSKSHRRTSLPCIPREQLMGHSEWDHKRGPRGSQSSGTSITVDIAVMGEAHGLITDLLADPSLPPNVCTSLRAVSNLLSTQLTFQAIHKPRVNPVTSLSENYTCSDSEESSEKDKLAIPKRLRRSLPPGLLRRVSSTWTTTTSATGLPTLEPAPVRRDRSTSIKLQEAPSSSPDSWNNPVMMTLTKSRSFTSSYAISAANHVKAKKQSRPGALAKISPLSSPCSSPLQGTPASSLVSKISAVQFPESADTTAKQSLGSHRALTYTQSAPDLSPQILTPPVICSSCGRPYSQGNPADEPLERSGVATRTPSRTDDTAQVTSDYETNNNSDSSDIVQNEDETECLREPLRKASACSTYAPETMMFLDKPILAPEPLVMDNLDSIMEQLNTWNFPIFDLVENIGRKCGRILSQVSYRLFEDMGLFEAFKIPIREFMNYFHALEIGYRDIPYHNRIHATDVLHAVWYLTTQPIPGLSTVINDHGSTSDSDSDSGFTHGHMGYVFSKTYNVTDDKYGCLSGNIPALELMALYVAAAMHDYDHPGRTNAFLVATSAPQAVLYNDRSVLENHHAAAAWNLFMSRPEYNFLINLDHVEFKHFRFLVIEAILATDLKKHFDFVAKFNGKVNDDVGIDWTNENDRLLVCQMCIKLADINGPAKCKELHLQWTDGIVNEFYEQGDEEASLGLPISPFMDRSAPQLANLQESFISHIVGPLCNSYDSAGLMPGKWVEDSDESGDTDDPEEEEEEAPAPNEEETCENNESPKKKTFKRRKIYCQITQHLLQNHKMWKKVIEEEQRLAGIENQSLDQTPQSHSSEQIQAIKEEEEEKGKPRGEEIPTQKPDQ
Answers are plain numbers, as −log10 of the molar value.

Cc1cc(=O)[nH]c2ccc(OCc3cccc(C(=O)N4CCC(O)CC4)c3)cc12 = 5.87
CC1(C)C(=O)NN=C1c1ccc(NC2=C(Cc3ccccc3F)C(=O)CCC2)cc1F = 7.80
Cn1nc(-c2ccc(Cl)cc2)s/c1=N\c1ccc(C(=O)O)cc1 = 4.51

Batch request: pIC50 per item, same order as input.
1. CCCc1nc(C)c2c(NS(C)(=O)=O)nc3ccc(OC)nc3n12
2. COc1ccc(C2=NN(CCCCOc3ccc(C4=NNC(=O)C4(C)C)cc3)C(=O)CC2C)c2cc(C(F)(F)F)nn12 (stereo unspecified)
3. Cn1nc(-c2ccc(Cl)cc2)s/c1=N\c1cccc(CC(=O)O)c1

5.90
6.57
5.07
